Target: EGFR (form used in the assay not stated) (human, UniProt P00533 25-645, limits assumed)
Experiment: ELISA, NEM conjugate, 100 nM

# Binder, binding relative to P54AR4-83v2 parent
measured = [
    ("P54AR4-83v2 S52C, NEM conjugate (designed binder, not shown: small tags and cut ends, N-ethyl maleimide (NEM) on Cys 52) LPAPKNLVVSEVTEDSARLSWDDPWAFYESFLIQYQESEKVGEAIVLTVPGCERSYDLTGLKPGTEYTVSIYGVHNVYKDTNMRGLPLSAIFTT", "1.03 ratio"),
    ("P54AR4-83v2 V9C, NEM conjugate (designed binder, not shown: small tags and cut ends, N-ethyl maleimide (NEM) on Cys 9) LPAPKNLVCSEVTEDSARLSWDDPWAFYESFLIQYQESEKVGEAIVLTVPGSERSYDLTGLKPGTEYTVSIYGVHNVYKDTNMRGLPLSAIFTT", "1.03 ratio"),
    ("P54AR4-83v2 I45C, NEM conjugate (designed binder, not shown: small tags and cut ends, N-ethyl maleimide (NEM) on Cys 45) LPAPKNLVVSEVTEDSARLSWDDPWAFYESFLIQYQESEKVGEACVLTVPGSERSYDLTGLKPGTEYTVSIYGVHNVYKDTNMRGLPLSAIFTT", "1.04 ratio"),
    ("P54AR4-83v2 E43C, NEM conjugate (designed binder, not shown: small tags and cut ends, N-ethyl maleimide (NEM) on Cys 43) LPAPKNLVVSEVTEDSARLSWDDPWAFYESFLIQYQESEKVGCAIVLTVPGSERSYDLTGLKPGTEYTVSIYGVHNVYKDTNMRGLPLSAIFTT", "1.04 ratio"),
    ("P54AR4-83v2 K5C, NEM conjugate (designed binder, not shown: small tags and cut ends, N-ethyl maleimide (NEM) on Cys 5, also called KSC) LPAPCNLVVSEVTEDSARLSWDDPWAFYESFLIQYQESEKVGEAIVLTVPGSERSYDLTGLKPGTEYTVSIYGVHNVYKDTNMRGLPLSAIFTT", "1.06 ratio"),
    ("P54AR4-83v2 S10C, NEM conjugate (designed binder, not shown: small tags and cut ends, N-ethyl maleimide (NEM) on Cys 10) LPAPKNLVVCEVTEDSARLSWDDPWAFYESFLIQYQESEKVGEAIVLTVPGSERSYDLTGLKPGTEYTVSIYGVHNVYKDTNMRGLPLSAIFTT", "1.07 ratio"),
    ("P54AR4-83v2 E11C, NEM conjugate (designed binder, not shown: small tags and cut ends, N-ethyl maleimide (NEM) on Cys 11) LPAPKNLVVSCVTEDSARLSWDDPWAFYESFLIQYQESEKVGEAIVLTVPGSERSYDLTGLKPGTEYTVSIYGVHNVYKDTNMRGLPLSAIFTT", "1.08 ratio"),
    ("P54AR4-83v2 G73C, NEM conjugate (designed binder, not shown: small tags and cut ends, N-ethyl maleimide (NEM) on Cys 73) LPAPKNLVVSEVTEDSARLSWDDPWAFYESFLIQYQESEKVGEAIVLTVPGSERSYDLTGLKPGTEYTVSIYCVHNVYKDTNMRGLPLSAIFTT", "0.02 ratio"),
    ("P54AR4-83v2 A90C, NEM conjugate (designed binder, not shown: small tags and cut ends, N-ethyl maleimide (NEM) on Cys 90) LPAPKNLVVSEVTEDSARLSWDDPWAFYESFLIQYQESEKVGEAIVLTVPGSERSYDLTGLKPGTEYTVSIYGVHNVYKDTNMRGLPLSCIFTT", "1.05 ratio"),
]
